Biological target: human TREM2 (Homo sapiens, UniProt Q9NZC2)
Construct: expressed in transfected cells; host or cells: HEK293T
Sequence (Q9NZC2 19-230): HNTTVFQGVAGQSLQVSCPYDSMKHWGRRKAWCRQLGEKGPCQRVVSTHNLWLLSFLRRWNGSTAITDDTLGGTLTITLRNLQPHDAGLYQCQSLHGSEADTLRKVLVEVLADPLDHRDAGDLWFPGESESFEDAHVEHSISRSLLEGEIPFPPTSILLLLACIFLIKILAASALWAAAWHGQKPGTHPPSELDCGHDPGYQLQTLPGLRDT
Sequence (O43914 22-113 partner): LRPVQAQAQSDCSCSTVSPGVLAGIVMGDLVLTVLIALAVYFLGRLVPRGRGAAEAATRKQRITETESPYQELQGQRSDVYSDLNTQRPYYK
Experiment: TREM2 agonist potency by cellular Syk phosphorylation (AlphaLisa) in HEK293T-hTREM2 cells
Assay type: cell-based
Conditions: Table D-2; HEK293 cells expressing human TREM2 and DAP12; pSyk AlphaLisa
Description: In vitro Measurement of Triggering Receptor Expressed on Myeloid Cells 2 activity using cellular phosphorylation of Spleen Tyrosine Kinase (“Syk”) Assays Measurement of TREM2 agonist potency was done using a HEK cell line expressing human TREM2 and DAP12 (HEK293T-hTREM2 cells). Binding of small molecules to, and activation of, TREM2 increases the phosphorylation of Syk. The resultant levels of Syk phosphorylation are measured using a commercial AlphaLisa reagent kit. […]
Experimental Endpoint: EC50

Sure, the documented EC50 for `CO[C@@H]1CCN(c2nc3nc([C@H]4CCO[C@@H](c5cnn(C6CC6)c5)C4)nc(-c4ccc(C(F)(F)F)cc4F)c3s2)C1` is 0.05 to 0.5 µM

Sure, the documented EC50 for CN(C)c1nc2nc(N3CCC(F)(F)[C@H](c4cnn(C5CC5)c4)C3)nc(-c3ccc(C(F)(F)F)cc3F)c2s1 (single isomer, unassigned) is 0.05 to 0.5 µM

Sure, the documented EC50 for `CN(c1nc2nc([C@H]3CCO[C@@H](c4cnn(C5CC5)c4)C3)nc(-c3ccc(F)cc3F)c2n1C)C1CC1` is 0.05 to 0.5 µM

Sure, the documented EC50 for `C[C@@H]1CN(c2nc(-c3c(F)cc(F)cc3F)c3sc(N(C)C)nc3n2)C[C@H](c2cnn(C3CC3)c2)O1` is ≤ 0.05 µM

Sure, the documented EC50 for CN(C)c1nc2nc([C@H]3CCO[C@@H](c4cnn(C5CC5)c4)C3)nc(-c3ccc(Cl)cc3F)c2s1 (single isomer, unassigned) is ≤ 0.05 µM

Sure, the documented EC50 for `C[C@@H]1CN(c2nc(-c3ccc(F)cc3F)c3c(n2)nc(N(C)C)n3C)C[C@H](c2cnn(C3CC3)c2)O1` is ≤ 0.05 µM

Sure, the documented EC50 for `CO[C@H]1CCN(c2nc3nc(N4C[C@@H](C)O[C@@H](c5cnn(C6CC6)c5)C4)nc(-c4ccc(F)cc4F)c3s2)C1` is ≤ 0.05 µM

Sure, the documented EC50 for C[C@@H]1CN(c2nc(-c3ccc(Cl)cc3F)c3sc(N(C)CCF)nc3n2)C[C@H](c2cnn(C3CC3)c2)O1 (single isomer, unassigned) is 0.05 to 0.5 µM

Sure, the documented EC50 for CN(C)c1nc2nc([C@@H]3CCO[C@@H](c4ccc(=O)n(C)c4)C3)nc(-c3ccc(F)cc3F)c2s1 (racemic) is 0.05 to 0.5 µM

Sure, the documented EC50 for `Cc1cc([C@H]2C[C@@H](c3nc(-c4ccc(F)cc4F)c4sc(N(C)C)nc4n3)CCO2)ccn1` is 0.05 to 0.5 µM

Sure, the documented EC50 for `C[C@@H]1CN(c2nc(-c3ccc(F)cc3F)c3c(ncn3C)n2)C[C@H](c2cnn(C3CC3)c2)O1` is 0.5 to 3 µM

Sure, the documented EC50 for `C/N=c1/sc2c(-c3ccc(Cl)cc3F)nc(N3C[C@@H](C)O[C@@H](c4cnn(C5CC5)c4)C3)nc2n1CCF` is 0.5 to 3 µM

Sure, the documented EC50 for `COCn1cc([C@H]2CN(c3nc(-c4ccc(F)cc4F)c4sc(N(C)C)nc4n3)C[C@@H](C)O2)cn1` is ≤ 0.05 µM
